# credit: ChEMBL document CHEMBL1201862

Tested on: NCI/ADR-RES
Test: NCI tumour cell line growth inhibition, 48 h
The source made the active and inactive calls. Cut-off read from the data, not from the text of the source: active = GI50 up to about 1.1 µM and inactive = higher.
attribute_measured: GI50

CC(Oc1ccccc1)C(=O)NNC(=O)OC(C)(C)C (stereo not given)
> 100 µM (inactive)
C=CC[C@H]1O[Si](C(C)(C)C)(C(C)(C)C)[C@H](C)[C@H]1C
> 100 µM (inactive)
CC(C)(C)c1cc(CC2C(=O)c3ccccc3C2=O)cc(C(C)(C)C)c1O
2.69 µM (inactive)
CCOCC(=O)N[C@H]1CCc2cc(OC(=O)COCC)c(OC)c(OC)c2-c2ccc(SC)c(=O)cc21
1.87 µM (inactive)
O=C(Nc1cccc([N+](=O)[O-])c1)c1nnn(-c2cccc([N+](=O)[O-])c2)c1O
> 100 µM (inactive)

----------
GI50 overview
Tested on: RXF 393
Test: NCI tumour cell line growth inhibition, 48 h
Active and inactive are the calls of the source. Rule as the data show it: active = GI50 up to about 1.1 µM and inactive = higher.
attribute_measured: GI50

COc1ccc(S(=O)(=O)N/N=C/CN2C(=O)c3ccccc3C2=O)cc1OC
> 100 µM (inactive)
CC(C)/C=C1\CCC(CN2CCOCC2)C1=O (stereo unspecified)
4.94 µM (inactive)
CC(C)/C=N\n1c(N)c(C#N)c(C#N)c1C(C)C
18.1 µM (inactive)
O=C1c2ccccc2S(=O)(=O)c2ccccc21
> 100 µM (inactive)
CN1CCCC2[C@@H]3CCC4c5nonc5CC[C@]4(C)C3CC[C@@]21C (stereo partly specified)
50.1 µM (inactive)
COC(=O)c1c(O)ccc2c1c1c(n2Cc2cc(OC)cc(OC)c2)C(=O)c2ccccc2C1
19.7 µM (inactive)
NCCC1CN(C(=O)OCc2ccccc2)c2ccccc21 (stereo unspecified)
8.45 µM (inactive)
CN(CC(=O)O)S(=O)(=O)c1ccc(Cl)cc1
> 100 µM (inactive)
c1csc(-c2ccsc2-c2ccsc2)c1
25.6 µM (inactive)
O=C1C(Cl)C(c2ccc(O)cc2)N1n1cnc2ccccc2c1=O (stereo unspecified)
19 µM (inactive)
O=C1NN=C(O)C2C3c4ccccc4C(c4ccccc43)C12 (stereo unspecified)
> 100 µM (inactive)
Oc1ccccc1/C=N/c1ccc(-c2nc3ccccc3s2)cc1
28.5 µM (inactive)
O=C(OCc1ccccc1)C(Cc1ccc(OCc2ccccc2)cn1)NC(=O)C(F)(F)F (stereo unspecified)
> 100 µM (inactive)
COc1ccc(C2Oc3ccc(O)cc3[C@@H]2C)cc1OC (stereo partly specified)
58.5 µM (inactive)
CCSC(=O)N1c2ccc(OC)cc2C=CC1C#N (stereo unspecified)
0.1 µM (active)
O=[N+]([O-])c1ccc(C2CC(c3ccc(NCc4nc5ccccc5[nH]4)cc3)=NO2)cc1 (stereo unspecified)
> 100 µM (inactive)

----------
Tested on: NCI-H522
Assay: NCI tumour cell line growth inhibition, 48 h
Active and inactive are the calls of the source. Cut-off read from the data, not from the text of the source: active = GI50 up to about 1.1 µM and inactive = higher.
Outcomes: active, inactive

CN(C)c1ccc(C=c2c3ccccc3n3c2c2ccccc2[n+]3C)cc1
active
CCOCC(=O)N[C@H]1CCc2cc(OC(=O)COCC)c(OC)c(OC)c2-c2ccc(SC)c(=O)cc21
active
CCC1=C(C[C@H]2NCCc3cc(OC)c(OC)cc32)C[C@H]2c3cc(OC)c(OC)cc3CCN2C1
active
CC(C)c1c(O)ccc2c1CCC1C(C)(C)CCCC21C (centres undefined)
inactive
Cc1ccc(NC(=O)SCCC(=O)O)cc1
inactive
COc1ccc(N/N=C/C2=CC(C)(C)C(C#N)(C#N)C(O)=C2C#N)cc1
inactive
O=C(c1ccccc1)c1nnn(Cc2cccc(Cl)c2)c1C(=O)c1ccccc1
inactive
CCCCCC(=O)N[C@@H](c1ccccc1)C(O)C(=O)OC1C[C@@]2(O)C(OC(=O)c3ccccc3)C3[C@](C)(C(=O)[C@H](O)C(=C1C)C2(C)C)C(OC1OCC(O)C(O)C1O)C[C@H]1OC[C@@]31OC(C)=O (some centres undefined)
active
O=C(OCc1ccccc1)C(Cc1ccc(OCc2ccccc2)cn1)NC(=O)C(F)(F)F (centres undefined)
inactive
